B1: library; a variant is named by its letters at N, in order (parent)
chain: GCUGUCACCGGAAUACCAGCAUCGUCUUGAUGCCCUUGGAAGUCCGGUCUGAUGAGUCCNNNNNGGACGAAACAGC

# Variants of: B1
# Assay Summary: normalized RNA/DNA level with ligand (relative to sTRSVctl = 100) (log10 (% of sTRSVctl)); higher = less ribozyme self-cleavage, higher mRNA level
# Test Settings: ligand concentration (+) RNA-Seq: 5 mM, HEK293T, reporter: mCherry (pCS4076), ligand present: yes
Reported normalized RNA/DNA level with ligand (log10) is given for each of the following variants.
Respond numerically, and do not add a unit to the figure.

Here is how some variants turned out for normalized RNA/DNA level with ligand (log10).
AAAGA ... 1.92
UAUCC ... 2.01
UUGAU ... 2.06
AGUGA ... 2
UAACC ... 1.92

# input variant: UAUAG ; wanted: its normalized RNA/DNA level with ligand (log10)
1.95

# input variant: UAUUC ; wanted: its normalized RNA/DNA level with ligand (log10)
1.99

# input variant: CCGAU ; wanted: its normalized RNA/DNA level with ligand (log10)
2

# input variant: CAUCC ; wanted: its normalized RNA/DNA level with ligand (log10)
2.04

# input variant: AGAUG ; wanted: its normalized RNA/DNA level with ligand (log10)
1.93

# input variant: UUAAA ; wanted: its normalized RNA/DNA level with ligand (log10)
1.9

# input variant: AAUAU ; wanted: its normalized RNA/DNA level with ligand (log10)
1.99
